These entries and their values trace back to the RNAGym collection of RNA variant scans (doi:10.7554/elife.90254).

B1: LINE1-full (parent)
chain: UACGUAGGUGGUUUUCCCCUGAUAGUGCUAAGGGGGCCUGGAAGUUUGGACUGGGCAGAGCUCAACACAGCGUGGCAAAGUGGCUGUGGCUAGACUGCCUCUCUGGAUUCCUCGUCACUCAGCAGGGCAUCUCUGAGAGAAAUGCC

Variants of: B1
Test: self-cleavage, relative activity (ratio to wild type); higher = more cleavage; in vitro, sequencing; the parent is a self-cleaving ribozyme
reported_property: self-cleavage

>  <sequence_change>
U9C C128U

>  <reading>
1.52

$$$$
>  <sequence_change>
G7U C123U

>  <reading>
1.39

$$$$
>  <sequence_change>
C17U A124G

>  <reading>
0.47

$$$$
>  <sequence_change>
G35C A94G

>  <reading>
0.14

$$$$
>  <sequence_change>
U102A A142U

>  <reading>
1.5

$$$$
>  <sequence_change>
U20G A140G

>  <reading>
0.96

$$$$
>  <sequence_change>
C56U A138G

>  <reading>
0.31

$$$$
>  <sequence_change>
U100C C103A

>  <reading>
0.85

$$$$
>  <sequence_change>
U115A A142G

>  <reading>
0.9

$$$$
>  <sequence_change>
U20A A43G

>  <reading>
1.12

$$$$
>  <sequence_change>
A69C U130C

>  <reading>
0.36

$$$$
>  <sequence_change>
G48A U130A

>  <reading>
0.91

$$$$
>  <sequence_change>
A78G G89A

>  <reading>
0.04

$$$$
>  <sequence_change>
C61U U134G

>  <reading>
0

$$$$
>  <sequence_change>
G10A U73G

>  <reading>
1.14

$$$$
>  <sequence_change>
U1C U15A

>  <reading>
0.81

$$$$
>  <sequence_change>
C28U C84U

>  <reading>
0.25

$$$$
>  <sequence_change>
G72A A92U

>  <reading>
0.69

$$$$
>  <sequence_change>
G7C U81A

>  <reading>
2.25

$$$$
>  <sequence_change>
G36A A141G

>  <reading>
1.38

$$$$
>  <sequence_change>
G89A U143C

>  <reading>
0.03

$$$$
>  <sequence_change>
U12C A57U

>  <reading>
0.22

$$$$
